tested system: mouse TMEM16A mutant T518A (Mus musculus, UniProt Q8BHY3, T518A)
Construct: expressed in transfected cells; host or cells: HEK293T
procedure text: Inside-out patch recording of 1PBC block, mutant T518A
Assay type: cell-based
experimental conditions: T518A; V 20 mV
Procedure: HEK293T cells (ATCC CRL-1573) were maintained in Dulbecco’s modified Eagle’s medium (DMEM; Sigma-Aldrich) supplemented with 10 U ml^−1 penicillin, 0.1 mg ml^−1 streptomycin (Sigma-Aldrich), 2 mM L-glutamine (Sigma-Aldrich), and 10% FBS (Sigma-Aldrich) in a humidified atmosphere containing 5% CO2 at 37 °C. […]
quantity: IC50 (µM)
Your answer is read as µM, so omit the unit and give the number.

Q: Entry under review: N#Cc1c(C(F)(F)F)cc(O)n2c1nc1ccccc12 . Reported IC50?
Ans: 4.37

====

tested system: mouse TMEM16A mutant V543A (Mus musculus, UniProt Q8BHY3, V543A)
Construct: expressed in transfected cells; host or cells: HEK293T
procedure text: Inside-out patch recording of 1PBC block, mutant V543A
Type: cell-based
experimental conditions: -80 mV; 15 µM Ca2+
quantity: IC50 (µM)
Your answer is read as µM, so omit the unit and give the number.

Q: Entry under review: N#Cc1c(C(F)(F)F)cc(O)n2c1nc1ccccc12 . Reported IC50?
Ans: 22

====

tested system: mouse TMEM16A mutant G558P (Mus musculus, UniProt Q8BHY3, G558P)
Construct: expressed in transfected cells; host or cells: HEK293T
Sequence (Q8BHY3 1-960 G558P): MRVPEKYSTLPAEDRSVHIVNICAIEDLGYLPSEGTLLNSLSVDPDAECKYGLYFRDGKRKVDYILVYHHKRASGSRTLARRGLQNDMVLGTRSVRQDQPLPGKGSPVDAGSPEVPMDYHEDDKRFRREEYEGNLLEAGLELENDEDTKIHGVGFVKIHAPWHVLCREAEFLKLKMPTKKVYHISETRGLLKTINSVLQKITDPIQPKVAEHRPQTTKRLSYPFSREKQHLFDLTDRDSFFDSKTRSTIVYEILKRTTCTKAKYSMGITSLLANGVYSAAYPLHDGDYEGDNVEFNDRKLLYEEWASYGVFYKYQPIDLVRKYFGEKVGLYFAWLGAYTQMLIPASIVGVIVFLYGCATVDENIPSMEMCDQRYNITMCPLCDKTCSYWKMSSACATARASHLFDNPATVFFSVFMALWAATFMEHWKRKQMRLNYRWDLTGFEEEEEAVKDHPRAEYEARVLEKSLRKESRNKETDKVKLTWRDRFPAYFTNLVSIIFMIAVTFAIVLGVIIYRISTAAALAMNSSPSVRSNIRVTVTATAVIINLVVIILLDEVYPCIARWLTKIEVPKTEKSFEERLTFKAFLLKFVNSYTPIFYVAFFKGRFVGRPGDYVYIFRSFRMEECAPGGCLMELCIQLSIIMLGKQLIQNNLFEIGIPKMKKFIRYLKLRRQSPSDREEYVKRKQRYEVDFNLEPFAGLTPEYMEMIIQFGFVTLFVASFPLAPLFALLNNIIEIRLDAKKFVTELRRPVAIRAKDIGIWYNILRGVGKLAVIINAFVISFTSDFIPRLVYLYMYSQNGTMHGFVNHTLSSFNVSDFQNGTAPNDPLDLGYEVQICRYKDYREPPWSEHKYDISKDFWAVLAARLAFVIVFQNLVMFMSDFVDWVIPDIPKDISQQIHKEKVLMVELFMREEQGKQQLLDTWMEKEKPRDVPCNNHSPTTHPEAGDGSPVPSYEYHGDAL
procedure text: Inside-out patch recording of 1PBC block, mutant G558P
Format: cell-based
experimental conditions: G558P; V 80 mV
quantity: IC50 (µM)
Your answer is read as µM, so omit the unit and give the number.

Q: Entry under review: N#Cc1c(C(F)(F)F)cc(O)n2c1nc1ccccc12 . Reported IC50?
Ans: 3.14

Data provenance: paper PMC9120017
